Just for reference, ChEMBL document CHEMBL1136930 is where these values come from.

half-life values by entry
test: Chemical stability assessed as hydrolysis half life by HPLC analysis; type: physicochemical
Report the figure in h without appending any unit label.

1) Cc1cccc2c1OP(=O)(OC[C@@H]1C=C[C@H](n3cc(C)c(=O)[nH]c3=O)O1)OC2 (some centres not stated); 15

// switching to the query compound
Ask: Fill blank: measured half-life of the compound Cc1cn([C@H]2C=C[C@@H](COP3(=O)OCc4cc(-c5ccccc5)ccc4O3)O2)c(=O)[nH]c1=O (some centres not stated) is ____.
Reply: 3.1
